Provide the recorded TGI for the entries that follow.
Tested on: OVCAR-4 ovarian
Assay: NCI tumour cell line growth inhibition, 48 h
Give bare numbers, in µM.

[
  {
    "compound": "COc1ccc(-c2nc(-c3nc4ccc(Cl)cc4[nH]3)c3ccccn23)cc1",
    "testTarget": "OVCAR-4 ovarian",
    "TGI, µM": 4.74
  },
  {
    "compound": "C[N+]1=C(/C=C/c2ccc(O)c3ncccc23)C(C)(C)c2ccccc21",
    "testTarget": "OVCAR-4 ovarian",
    "TGI, µM": 17.2
  }
]

# per-item lookup of TGI; items listed below
1. CCCCCCCCCCCCN(CC(O)C(O)C(OC1OC(CO)C(O)C(O)C1O)C(O)CO)C(=O)CCCCCCCCCCC (configuration not stated)
2. O=C(Cn1c2c(c3ccccc31)CCCC2)N1CCCC1

**A:**
[44.5, 73.3]

# per-item lookup of TGI; items listed below
1. Cc1ccc(C(=O)N(CCCN)C(c2oc3cc(Cl)ccc3c(=O)c2Cc2ccccc2)C(C)C)cc1 (configuration not stated)
2. O=C1Nc2ccccc2C1(c1ccc(O)cc1)c1ccc(O)cc1
3. C=C(C[C@](O)(C(=O)/C=C/c1ccc(Cl)cc1)C(=O)OC)c1ccccc1

**A:**
1. 2.47
2. 0.961
3. 15.6
